meta.source: patent US20210196796A1

Target: T1, orthogonal hCD122 receptor (hoRb), hCD122 with H133D and Y134F (human, UniProt P14784 27-550)
T1 sequence: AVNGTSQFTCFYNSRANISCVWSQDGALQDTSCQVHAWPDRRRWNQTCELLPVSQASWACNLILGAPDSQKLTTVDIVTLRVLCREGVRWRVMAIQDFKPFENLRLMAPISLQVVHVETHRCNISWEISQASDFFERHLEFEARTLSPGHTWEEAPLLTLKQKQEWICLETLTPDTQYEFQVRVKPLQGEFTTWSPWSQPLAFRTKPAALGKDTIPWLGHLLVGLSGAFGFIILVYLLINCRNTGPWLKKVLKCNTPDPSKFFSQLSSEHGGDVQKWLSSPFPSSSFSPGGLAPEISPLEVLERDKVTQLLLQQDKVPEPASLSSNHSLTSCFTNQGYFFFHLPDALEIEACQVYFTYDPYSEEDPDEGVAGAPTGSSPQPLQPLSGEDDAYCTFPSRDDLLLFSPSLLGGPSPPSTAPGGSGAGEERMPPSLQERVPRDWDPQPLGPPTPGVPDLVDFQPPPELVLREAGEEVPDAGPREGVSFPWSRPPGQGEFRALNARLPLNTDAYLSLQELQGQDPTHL
Test: cell-based or functional assay
observable: NKL Ortho Proliferation Signal 1:10
Output spec: single numeric token, no unit.

binder: SQVLHA (ligand) APTSSSTKKTQLQLSQLLVLLHAILNGINNYKNPKLTRMLTFKFYMPKKATELKHLQCLEEELKPLEEVLNLAQSKNFHLRPRDLISNINVIVLELKGSETTFMCEYADETATIVEFLNRWITFCQSIISTLT
observable: NKL Ortho Proliferation Signal 1:10
measured number: 26000

Please find the next binder below.
Please supply the value of reported NKL Ortho Proliferation Signal 1:10 for the item T3E, SQVLKA (ligand) APESSSTKKTQLQLSQLLVLLKAILNGINNYKNPKLTRMLTFKFYMPKKATELKHLQCLEEELKPLEEVLNLAQSKNFHLRPRDLISNINVIVLELKGSETTFMCEYADETATIVEFLNRWITFCQSIISTLT
75000
